test: differentiation of ER-HoxA9 arrested myeloid cells – cell-based, GFP/Mac1 flow cytometry, cherry pick 01, confirmation (AID 651706); details: ER-HoxA9 myeloid progenitors, stronger effect = higher value; measured here: percent double positive cells;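 note: share of live cells carrying both lysozyme GFP and MAC1 staining after four days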
In all, about 2,300 compounds went through this assay and about 55 (2%) were called active. A selection follows.
Give measured double positive cells for each item. Keep answers brief.
Give the value, in units of %, as a plain number.

In plain terms, COc1ccc(C2CC(c3cccc(OC)c3)=NN2c2ccc(S(N)(=O)=O)cc2)cc1 (configuration not stated) has a documented double positive cells of 1.4

In plain terms, CC(C)(C)OC(=O)CNC(=O)c1[nH]cnc1C(=O)N[C@@H](Cc1ccccc1)C(=O)OCc1ccccc1 has a documented double positive cells of 1.95

In plain terms, CC(=O)Nc1ccc(S(=O)(=O)Nc2ccc(N3CCCCC3)cc2)cc1 has a documented double positive cells of 0

In plain terms, COc1ccc(S(=O)(=O)N2CCC(C(=O)N3CCc4ccccc4C3)CC2)cc1OC has a documented double positive cells of 1

In plain terms, COc1ccc(C(C(=O)NCc2ccccc2)n2c(=O)c(-c3ccccc3)nc3ccccc32)cc1 (configuration not stated) has a documented double positive cells of 12.2

In plain terms, Cc1ccc(Nc2cc(C)nc3c(C)ccc([N+](=O)[O-])c23)cc1 has a documented double positive cells of 0.55

In plain terms, Cc1ccc(-n2nc3cc(C)c(NC(=O)c4cccnc4)cc3n2)cc1 has a documented double positive cells of 1.05

In plain terms, CCOC(=O)c1c(-c2cccc(C)c2)csc1NC(=O)c1c(-c2ccccc2)noc1C has a documented double positive cells of 0.25

In plain terms, CN1OC(COC(=O)c2ccc(Cl)cc2)CC1c1ccccc1 (configuration not stated) has a documented double positive cells of 0.8

In plain terms, O=C(CN1C(=O)NC(Cc2c[nH]c3ccccc23)C1=O)Nc1ccccc1C(F)(F)F (configuration not stated) has a documented double positive cells of 1.2

In plain terms, Cc1cc(C)c(-c2csc(NC(=O)CCCc3nc4ccccc4c(=O)[nH]3)n2)c(C)c1 has a documented double positive cells of 0

In plain terms, Cc1cc(NC(=O)CSc2nc(C(C)C)nc3sc4c(c23)CCC(C)C4)no1 (configuration not stated) has a documented double positive cells of 1.25

In plain terms, CC(C)CC(COCc1ccc(Cl)cc1)N1CCN(C(=O)c2ccc(C(F)(F)F)cc2)CCC1=O (configuration not stated) has a documented double positive cells of 1.95

In plain terms, CSc1nnc(-c2ccncc2)n1CCCN1CCCC1=O has a documented double positive cells of 1.15

In plain terms, O=C(Nc1cccc2ncccc12)c1ccc(-c2ccc(Cl)cc2Cl)o1 has a documented double positive cells of 2.9

In plain terms, COc1cc(/C=C(\C#N)c2nc3ccccc3[nH]2)ccc1O has a documented double positive cells of 1.25

In plain terms, CN(C(=O)c1cccc([N+](=O)[O-])c1)c1ccccc1C(=O)NCc1ccccc1 has a documented double positive cells of 1.35

In plain terms, COc1ccccc1N1CCN(C(=O)c2cc(-c3ccc(Br)cc3)on2)CC1 has a documented double positive cells of 1.65

In plain terms, O=C1c2ccccc2C(=O)N1Cc1cc(-c2ccccc2Cl)no1 has a documented double positive cells of 1.25

In plain terms, O=C(Nc1cccc(-c2nc3ncccc3o2)c1)c1ccco1 has a documented double positive cells of 0.45

In plain terms, COc1ccc(N(CC(=O)NC2CCCCCCC2)S(=O)(=O)c2c(C)nn(C)c2C)cc1 has a documented double positive cells of 0.95

In plain terms, Cc1ccc2c(c1)c1ncn(Cc3ccc(F)cc3)c(=O)c1n2C has a documented double positive cells of 0.8

In plain terms, COC(=O)CN(c1cccc(C(C)=O)c1)S(C)(=O)=O has a documented double positive cells of 1.5

In plain terms, CC(=O)Nc1ccc(S(=O)(=O)Nc2ccc(N3CCOCC3)c(F)c2)cc1 has a documented double positive cells of 1

In plain terms, CCc1noc(C)c1C(=O)Nc1nc(-c2ccccc2)cs1 has a documented double positive cells of 1

In plain terms, O[C@H]1C[C@H](c2ccc(Cl)cc2)N(Cc2cccs2)C[C@@H]1n1cc(C2CC2)nn1 has a documented double positive cells of 13.1

In plain terms, COc1ccc(-c2ccc(OC(=O)NC3CCS(=O)(=O)C3)cc2)cc1 (configuration not stated) has a documented double positive cells of 0.5

In plain terms, Cc1ccc(C(=O)NC2CCCC(C)C2C)cc1S(=O)(=O)N1CCCCC1 (configuration not stated) has a documented double positive cells of 3.95

In plain terms, O=C(Nc1ccccc1N1CCN(c2ccccc2)CC1)c1cccc(F)c1 has a documented double positive cells of 0.65

In plain terms, Cc1cc(C)n(C(=O)c2ccc(C)c(S(=O)(=O)N3CCOCC3)c2)n1 has a documented double positive cells of 1.8

In plain terms, Cc1ccc(-c2nc(C#N)c(NCCCn3ccnc3)o2)cc1 has a documented double positive cells of 1.1

In plain terms, N#CC1=C(N)Oc2c(sc3ccccc23)C1c1ccco1 (configuration not stated) has a documented double positive cells of 25

In plain terms, Cc1cccc(C)c1NC(=O)CCS(=O)(=O)c1cccc2nsnc12 has a documented double positive cells of 1.5

In plain terms, O=c1oc2ccccc2cc1-c1csc(Nc2ccc(O)cc2)n1 has a documented double positive cells of 12.5

In plain terms, COc1ccc2nc(N3CCN(C(=O)c4ccc([N+](=O)[O-])o4)CC3)sc2c1 has a documented double positive cells of 0

In plain terms, Cn1c(CNC(=O)c2ccccc2F)nnc1SCc1ccc(F)cc1 has a documented double positive cells of 1.1

In plain terms, COc1ccc(C(=O)N(Cc2ccccc2)c2ccc(C)cc2)cc1S(=O)(=O)N1CCOCC1 has a documented double positive cells of 0.95

In plain terms, CCN(CC)CC(=O)c1c[nH]c2ccc(OC)cc12 has a documented double positive cells of 0.9

In plain terms, CC(=O)N1c2ccc(S(=O)(=O)N3CCCC(C(=O)Nc4cccc(F)c4)C3)cc2CC1C (configuration not stated) has a documented double positive cells of 0.95

In plain terms, Cc1c(C(=O)OCC(=O)N(CCC#N)c2ccccc2)oc2c1ccc1ccccc12 has a documented double positive cells of 0

In plain terms, CC(CNc1ccc([N+](=O)[O-])cc1)NC(=O)c1ccccc1Br (configuration not stated) has a documented double positive cells of 1

In plain terms, O=C(CCCN1C(=O)CCC1=O)Nc1ccc(Cl)c(C(F)(F)F)c1 has a documented double positive cells of 1.1
